Each recorded value in this set is attributed to the supplement of paper PMC11208160.

assay-text: recombinant UMI read abundance after kanamycin selection (control-corrected) (log10(CPM+1)); higher = more efficient recombination; extreme values may be limits of the assay; sequences stand for … in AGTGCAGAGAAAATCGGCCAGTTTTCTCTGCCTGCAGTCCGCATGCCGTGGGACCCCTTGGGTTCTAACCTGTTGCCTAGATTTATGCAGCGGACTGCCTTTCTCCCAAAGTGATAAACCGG…AGGTTGGTTTCACT; site = the 11-nt donor;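 further: IS621 bridge recombinase in Escherichia coli cells against a fixed T5 target plasmid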
Note to self: values exactly at 0.01 are yes. So recombinant UMI read abundance (log10) at or above 0.01 is yes, below is no.

Solved entries (count: 5):
• TTTGCGGCATGGACCGGTTTTCCCGGTAATCCGTATTTGCC (site TTTGCGGCTTG) = yes
• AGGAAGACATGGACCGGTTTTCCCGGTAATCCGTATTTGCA (site ATGAAGACTTC) = yes
• GTGCGTGCATGGACCGGTTTTCCCGGTAATCCGTATTTGGT (site GTGCTTGCTAC) = no
• ACAGAATCATGGACCGGTTTTCCCGGTAATCCGTATTTGCT (site ACAGTATCTTG) = yes
• CGCGGCCCATGGACCGGTTTTCCCGGTAATCCGTATTTGTT (site CCCGGCCCTAA) = no

Could you verify whether the entry GTAATTTCATGGACCGGTTTTCCCGGTAATCCGTATTTGCA (site GTAATTTCTTG) shows recombinant UMI read abundance (log10) of no less than 0.01?
yes

Could you verify whether the entry CTCCCTACATGGACCGGTTTTCCCGGTAATCCGTATTTGAC (site CTCCCTACTCT) shows recombinant UMI read abundance (log10) of no less than 0.01?
yes

Could you verify whether the entry TGTTCACCATGGACCGGTTTTCCCGGTAATCCGTATTTGTA (site TGTTCTCCTTA) shows recombinant UMI read abundance (log10) of no less than 0.01?
no

Could you verify whether the entry GTTTACCCATGGACCGGTTTTCCCGGTAATCCGTATTTGGG (site GTTTACCCTCC) shows recombinant UMI read abundance (log10) of no less than 0.01?
no

Could you verify whether the entry GGTGCAGCATGGACCGGTTTTCCCGGTAATCCGTATTTGGA (site GGTGCAGCTTC) shows recombinant UMI read abundance (log10) of no less than 0.01?
yes
